The entries below come with measured Kd values attached.
- target desc: T1, rat NPR1 (rNPR1) (rat, UniProt P18910 29-469, limits assumed)
- T1 construct: Soluble antigen
- T1 sequence: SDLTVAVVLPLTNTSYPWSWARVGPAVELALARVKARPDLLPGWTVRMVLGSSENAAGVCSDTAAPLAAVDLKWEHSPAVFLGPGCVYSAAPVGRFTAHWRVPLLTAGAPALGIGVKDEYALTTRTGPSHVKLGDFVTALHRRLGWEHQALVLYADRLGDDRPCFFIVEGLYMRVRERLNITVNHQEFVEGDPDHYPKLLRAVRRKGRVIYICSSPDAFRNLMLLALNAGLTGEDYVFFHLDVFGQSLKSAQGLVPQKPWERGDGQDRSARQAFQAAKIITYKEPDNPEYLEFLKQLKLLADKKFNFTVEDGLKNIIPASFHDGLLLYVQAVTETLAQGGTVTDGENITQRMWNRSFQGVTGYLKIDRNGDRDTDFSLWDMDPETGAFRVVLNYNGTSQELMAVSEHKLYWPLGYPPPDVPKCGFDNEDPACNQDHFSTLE
- assay notes: SET, FabCys
Dear colleague, please return just the value in nM, with no unit written.

Some binders with recorded Kd:
- binder: "XX06 (FabCys format) (Fab, V domains shown, Monovalent FabCys) VH: QVQLLESGGGLVQPGGSLRLSCAASGFTFSSYWMNWVRQAPGKGLEWVSAISSDGSYTYYADSVKGRFTISRDNSKNTLYLQMNSLRAEDTAVYYCARDRYSMIYSYGAGAFDYWGQGTLVTVSS VL: DIQMTQSPSSLSASVGDRVTITCRASQGISSYLAWYQQKPGKAPKLLIYTASTLQSGVPSRFSGSGSGTDFTLTISSLQPEDFATYYCQQTWRKPRTFGQGTKVEIK"
  parameter measured: "Kd"
  units text: "nM"
  measured value: 2.3
- binder: "XX04 (FabCys format) (Fab, V domains shown, Monovalent FabCys) VH: QVQLLESGGGLVQPGGSLRLSCAASGFTFSSYWMNWVRQAPGKGLEWVSAISSDGSYTYYADSVKGRFTISRDNSKNTLYLQMNSLRAEDTAVYYCARDRYSMIYSYGAGAFDYWGQGTLVTVSS VL: DIQMTQSPSSLSASVGDRVTITCRASQGISSYLAWYQQKPGKAPKLLIYTASTLQSGVPSRFSGSGSGTDFTLTISSLQPEDFATYYCQQEWVKPRTFGQGTKVEIK"
  parameter measured: "Kd"
  units text: "nM"
  measured value: 3.3
- binder: "XX12 (FabCys format) (Fab, V domains shown, Monovalent FabCys) VH: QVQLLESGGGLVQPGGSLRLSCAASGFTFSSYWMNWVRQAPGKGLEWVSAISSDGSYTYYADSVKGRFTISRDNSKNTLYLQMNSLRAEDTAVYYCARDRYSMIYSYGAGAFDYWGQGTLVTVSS VL: DIQMTQSPSSLSASVGDRVTITCRASQGISSYLAWYQQKPGKAPKLLIYTASTLQSGVPSRFSGSGSGTDFTLTISSLQPEDFATYYCQQIWMAPRTFGQGTKVEIK"
  parameter measured: "Kd"
  units text: "nM"
  measured value: 3

Task: Give the measured Kd for XX03 (FabCys format) (Fab, V domains shown, Monovalent FabCys) VH: EVQLLESGGGLVQPGGSLRLSCAASGFTFSSYWMNWVRQAPGKGLEWVSVIESKGNYIFYADSVKGRFTISRDNSKNTLYLQMNSLRAEDTAVYYCARDRYSMIYSYGAGAFDYWGQGTLVTVSS VL: DIQMTQSPSSLSASVGDRVTITCRASQGISSYLAWYQQKPGKAPKLLIYTASTLQSGVPSRFSGSGSGTDFTLTISSLQPEDFATYYCMQSYEKPRTFGQGTKVEIK
Output: 1.1
